Target: T1, orthogonal hCD122 receptor (hoRb), hCD122 with H133D and Y134F (human, UniProt P14784 27-550); further: reference of the scale not given here
T1 sequence: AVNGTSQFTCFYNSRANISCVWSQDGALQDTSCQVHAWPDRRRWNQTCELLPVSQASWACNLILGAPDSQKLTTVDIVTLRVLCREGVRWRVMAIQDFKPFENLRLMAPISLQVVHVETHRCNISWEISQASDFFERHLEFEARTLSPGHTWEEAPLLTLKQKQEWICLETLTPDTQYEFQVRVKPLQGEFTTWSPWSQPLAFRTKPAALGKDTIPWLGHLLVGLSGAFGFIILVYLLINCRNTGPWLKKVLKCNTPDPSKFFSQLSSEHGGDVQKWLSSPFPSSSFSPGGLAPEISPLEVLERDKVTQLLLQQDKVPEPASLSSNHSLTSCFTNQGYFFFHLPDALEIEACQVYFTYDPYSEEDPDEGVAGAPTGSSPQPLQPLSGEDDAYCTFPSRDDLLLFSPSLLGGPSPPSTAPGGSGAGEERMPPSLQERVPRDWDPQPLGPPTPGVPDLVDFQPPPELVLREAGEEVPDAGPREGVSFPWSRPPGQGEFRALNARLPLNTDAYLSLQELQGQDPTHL
Experiment: cell-based or functional assay
Measured Relative Proliferation Fold Change NKL 1:2, listed per entry.
Output spec: scalar in fold, unitless text.

SQVLRA (ligand) APTSSSTKKTQLQLSQLLVLLRAILNGINNYKNPKLTRMLTFKFYMPKKATELKHLQCLEEELKPLEEVLNLAQSKNFHLRPRDLISNINVIVLELKGSETTFMCEYADETATIVEFLNRWITFCQSIISTLT : 4.33

Now for a further binder.
Given the entry Q126G, SQVLKA (ligand) APTSSSTKKTQLQLSQLLVLLKAILNGINNYKNPKLTRMLTFKFYMPKKATELKHLQCLEEELKPLEEVLNLAQSKNFHLRPRDLISNINVIVLELKGSETTFMCEYADETATIVEFLNRWITFCGSIISTLT , report its measured Relative Proliferation Fold Change NKL 1:2.
0.45
